Target: Beta-2 adrenergic receptor (Homo sapiens) (UniProt P07550)
Sequence (P07550 whole entry, looked up): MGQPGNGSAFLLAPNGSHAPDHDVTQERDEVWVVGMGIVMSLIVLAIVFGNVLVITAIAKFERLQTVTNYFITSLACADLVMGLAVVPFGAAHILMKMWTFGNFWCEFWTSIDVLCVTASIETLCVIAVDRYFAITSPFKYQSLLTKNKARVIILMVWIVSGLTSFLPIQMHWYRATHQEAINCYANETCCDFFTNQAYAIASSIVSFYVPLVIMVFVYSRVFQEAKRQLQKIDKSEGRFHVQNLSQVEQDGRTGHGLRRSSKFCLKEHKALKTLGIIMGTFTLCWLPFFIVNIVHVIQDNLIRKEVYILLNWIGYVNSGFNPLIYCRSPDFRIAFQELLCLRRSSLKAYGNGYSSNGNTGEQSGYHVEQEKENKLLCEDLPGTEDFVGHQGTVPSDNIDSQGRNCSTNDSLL
Test: Adrenergic beta2 receptor (ADRB2) small molecule agonists, cell-based qHTS assay (AID 1963593);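 also: CHO cells stably overexpressing human ADRB2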
Conditions: CHO-ADRB2 cells, cAMP HTRF, 30 min; series mostly up to 92.4 µM
Results filed as inconclusive are left out. The source made the active and inactive calls. Calls follow the shape of the full dose curve.
Property label: activation

Recorded results for 6 compounds are shown here.
CCOC(=O)c1ccc(O)c(O)c1    inactive
CN(C)c1cccc(O)c1    inactive
CCC/C=C/C=O    inactive
CN(C)CCOC(c1ccc(Cl)cc1)c1ccccn1 (stereo not given)    inactive
CC(C[N+](C)(C)C)OC(N)=O (stereo not given)    inactive
CCCCCCCCSCC    inactive

Which activation is reported with Beta-2 adrenergic receptor (Homo sapiens) (UniProt P07550) for this entry: C=CC(C)(CCC=C(C)C)OC(=O)CC (stereo not given) ?
inactive

Hello, I am looking for reported activation with Beta-2 adrenergic receptor (Homo sapiens) (UniProt P07550) for CC(=O)C1(C)CC2=C(CCCC2(C)C)CC1C (stereo not given) . Could you help?
inactive

Query the reported activation for Beta-2 adrenergic receptor (Homo sapiens) (UniProt P07550); item: O=S(=O)(O)c1cccc(S(=O)(=O)O)c1
inactive

Param readout = activation; param system = Beta-2 adrenergic receptor (Homo sapiens) (UniProt P07550); param query = CCCC(=O)OCC(COC(=O)CCC)OC(=O)CCC ; response: value
inactive

Provide value of activation for this record tested with Beta-2 adrenergic receptor (Homo sapiens) (UniProt P07550): O=CC1CC1
inactive

###

Target: Gonadotropin-releasing hormone receptor (Homo sapiens) (UniProt P30968)
Sequence (P30968 whole entry, looked up): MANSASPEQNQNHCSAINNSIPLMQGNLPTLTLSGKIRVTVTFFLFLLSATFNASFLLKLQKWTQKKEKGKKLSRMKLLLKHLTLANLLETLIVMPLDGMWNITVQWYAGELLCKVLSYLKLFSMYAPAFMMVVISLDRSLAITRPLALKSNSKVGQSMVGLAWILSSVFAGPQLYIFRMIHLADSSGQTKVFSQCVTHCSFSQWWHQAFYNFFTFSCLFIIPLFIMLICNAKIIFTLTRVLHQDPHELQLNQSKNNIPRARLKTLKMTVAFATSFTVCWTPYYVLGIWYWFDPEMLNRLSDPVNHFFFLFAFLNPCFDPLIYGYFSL
Assay: Human gonadotropin-releasing hormone receptor (GnRHR) small molecule agonists, calcium flux assay in GnRHR-HEK293 cells (AID 1920063); also: nearly all actives have a fitted effect of over 35% in size
Conditions: calcium flux fluorescence, agonist mode; series mostly up to 57.6 µM
Active and inactive are the calls of the source. The call rests on the fitted dose curve.
Property label: activity change

Worked examples follow.
O=c1[nH]cnc2c1ncn2[C@@H]1O[C@H](CO)[C@@H](O)[C@H]1O    inactive
CCCC(C)C(O)CC (stereo unspecified)    inactive
COc1cccc(Br)c1    inactive
O=CC1CC1    inactive
CC(C)=C1CC[C@@H](C)CC1=O    inactive
Nc1ccc(S(=O)(=O)Nc2ccc(Cl)nn2)cc1    inactive
Cc1cc(C)cc(N)c1    inactive
c1ccc2c(c1)ccc1ncccc12    inactive
CC1=CC(=O)NS(=O)(=O)O1    inactive
C=CC(C)(O)CC/C=C(\C)CCC=C(C)C (stereo unspecified)    inactive

So what's the measured activity change for this one? C=CC(=O)NCOCC(C)C
inactive

Look up activity change: CC(=O)OC/C=C/c1ccccc1
inactive

What value of measured activity change is listed for OC[C@H]1O[C@H](O[C@H]2O[C@H](CO)[C@@H](O)[C@H](O)[C@H]2O)[C@H](O)[C@@H](O)[C@@H]1O ?
inactive

Return reported activity change; argument: CC(C)OCCO
inactive

Entry under review: CC(C)C(=O)O . Reported activity change?
inactive

Name the recorded activity change for O[C@@H]([C@H](O)[C@H](O)CBr)[C@H](O)CBr .
inactive

// activity change lookup, key: Cc1cnccn1
inactive

###

Assay: cAMP Responsive Elements (CRE) small molecule antagonists, cell-based qHTS assay (AID 1963591)
Conditions: CRE-bla HEK293T, beta-lactamase FRET ratio; series mostly up to 92.4 µM
Inconclusive results are not listed. Calls of active or inactive are those of the source. Calls come from the whole dose curve; as a rule, active = well fitted inhibition curve with a large enough effect in the signal ratio in the repeat runs (not every such curve was filed as active); inconclusive = weak or mixed curves, or effect the other way; inactive = flat fitted curve, though single readings scatter; the % refers to the signal ratio.
Property label: activity change, negative = inhibition

CC[C@@H]1C[C@H](N(Cc2cc(C(F)(F)F)cc(C(F)(F)F)c2)C(C)=O)c2cc(C(F)(F)F)ccc2N1C(=O)OC(C)C    inactive
Cn1c(=O)c2[nH]c(Br)nc2n(C)c1=O    inactive
CCO[Si](C)(OCC)OCC    inactive
NS(=O)(=O)c1cc2c(cc1C(F)(F)F)NC(Cc1ccccc1)NS2(=O)=O (centres undefined)    inactive
C=C(C)C(=O)NCCC[N+](C)(C)C    inactive
CCCCCCCCCC/C=C/C#N    inactive
CC(=O)c1sc(C)nc1C    inactive
Cc1ccc(C(C)(C)O)cc1    inactive
O=C(O)c1cc2ccccc2cc1O    inactive
CC1=CC[C@H](CC=O)C1(C)C    inactive

Item under review: O=C[C@H](O)[C@@H](O)[C@H](O)[C@H](O)CO . Reported activity change, negative = inhibition?
inactive

Query: activity change, negative = inhibition; subject: CC(=O)CC(=O)Nc1ccccc1
inactive

What does the data say about its activity change, negative = inhibition? Entry: CC(CO)CO
inactive

Any idea what activity change, negative = inhibition was measured for O=C(O)CCc1ccccc1 ?
inactive

###

Test: p53 small molecule agonists, cell-based qHTS assay (AID 1963582)
Details: HCT-116 p53RE-bla reporter, beta-lactamase FRET ratio, 16 h; series mostly up to 66 µM
Records with an inconclusive call do not appear. Activity calls are given as the source filed them. Calls follow the shape of the dose curve; as a rule, active = well fitted activation curve with a large enough effect in the signal ratio in the repeat runs (not every such curve was filed as active); inconclusive = weak or mixed curves; inactive = flat fitted curve, though single readings scatter; the % refers to the signal ratio.
Property label: activation

# example entries with known answers
CC(C=O)Cc1ccc(C(C)(C)C)cc1 (stereo not drawn)    inactive
CCC(C)(Oc1ccc(C2(c3ccc(OC(C)(CC)C(=O)O)cc3)CCCCC2)cc1)C(=O)O (stereo not drawn)    inactive
CCOC(=O)c1ccc(O)c(O)c1    inactive
C1CCSC1    inactive
O=CC1CC=CCC1 (stereo not drawn)    inactive
NCc1ccccc1Sc1ccccc1CO    inactive
c1ccc(SCCSc2ccccc2)cc1    inactive
c1coc(CNc2ncnc3nc[nH]c23)c1    inactive
CCC(C)NC(N)=O (stereo not drawn)    inactive
CCOC(=O)CCC(C)=O    inactive

Entry under review: NC1CCCCC1N (stereo not drawn) . Reported activation?
inactive

Name the recorded activation for CCCCCCCCS(=O)(=O)Cl .
inactive

Recorded activation for C[N+]1([O-])CCOCC1 , please?
inactive

For O=C(O)c1ccc(OCCCOc2ccc(C(=O)O)cc2)cc1 , what is its reported activation?
inactive

Quick check: activation of [Cl][Dy]([Cl])[Cl] ?
inactive

Requested read-out: activation. Entry: CCCOCCOCCOCCO
inactive

Which activation value belongs to O=c1[nH]c2ccc(Cl)cc2o1 ?
inactive

Would you mind telling me what activation value was observed for Cc1ncc(CSSCc2cnc(C)c(O)c2CO)c(CO)c1O ?
inactive

Name the recorded activation for Cn1c(=O)c2c(ncn2C)n(C)c1=O .
inactive

What measured activation goes with COC(=O)c1ccccc1C(=O)O ?
inactive

###

Test: Nuclear factor erythroid 2-related factor 2/antioxidant responsive element (Nrf2/ARE) small molecule agonists: qHTS cell viability counter screen in human keratinocytes (AID 1919968); also: nearly all actives have a fitted effect of over 55% in size
Conditions: KeratinoSens HaCaT ARE cells viability, CellTiter-Fluor, 24 h; series mostly up to 92.4 µM
Records with an inconclusive call do not appear. Active and inactive are the calls of the source. The call rests on the fitted dose curve; in most records, active means well fitted cell-killing curve with a large enough effect in the repeat runs; inconclusive means weak or mixed curves, or effect the other way; inactive means flat fitted curve, though single readings scatter.
Property label: outcome

Example cases with answers are listed next.
CN1Cc2c(N)cccc2C(c2ccccc2)C1 (stereo unspecified)    inactive
O=C(O)CONC(=O)c1ccccc1    inactive
Cc1cc(O)cc2c1O[C@](C)(CCC[C@H](C)CCC[C@H](C)CCCC(C)C)CC2    inactive
CO/N=C(/C(=O)N[C@@H]1C(=O)N2C(C(=O)O)=C(COC(N)=O)CS[C@H]12)c1ccco1    inactive
CC(C)CC(C)(N)C#N (stereo unspecified)    inactive

Form field: reported outcome of O=C(c1ccc2c(c1)C(=O)OC2=O)c1ccc2c(c1)C(=O)OC2=O
inactive

###

Assay: p53 small molecule agonists, cell-based qHTS assay with rat liver microsomes (AID 1963578)
Details: HCT-116 p53RE-bla, beta-lactamase ratio, 16 h; series mostly up to 66 µM
Source text: U.S. Tox21 Program National Center for Advancing Translational Sciences [NCATS] Division of Preclinical Innovation [DPI] U.S. Environmental Protection Agency [EPA] National Institutes of Environmental Health Sciences [NIEHS] National Toxicology Program [NTP] U.S. Food and Drug Administration [FDA] […] The activation of the reporter gene under culture conditions can be detected by fluorescence intensity. […]
Results filed as inconclusive are left out. Calls of active or inactive are those of the source. The call rests on the fitted dose curve.
Property label: activation

Consider the worked cases shown below.
CC1CCCC(=O)C1=O (stereo not given)    inactive
CCC(=O)O[C@@H]1C[C@H]2CC[C@]1(C)C2(C)C    inactive
C=CC(=O)O[C@H]1C[C@@H]2CC[C@@]1(C)C2(C)C    inactive
CCCOC(C(=O)OC1CCN(C)CC1)(c1ccccc1)c1ccccc1    inactive
CC(C)OCCO    inactive

Next:
Which activation is reported for this molecule? C1=CCC2CC=CC2C1 (stereo not given)
inactive

###

Experiment: p53 small molecule agonists, cell-based qHTS assay with rat liver microsomes: qHTS cell viability counter screen (AID 1963580); also: potency is read from the fitted curve at half-maximal effect; nearly all actives have a fitted effect of over 45% in size
Settings: p53RE-bla HCT-116 + rat microsomes, ATP viability, 16 h; series mostly up to 66 µM
Records with an inconclusive call do not appear. The source made the active and inactive calls. The call rests on the fitted dose curve.
Property label: Potency

CC(C)(C)c1ccc(O)c(C(C)(C)C)c1    45.8 µM (active)
Cn1sccc1=O    18.2 µM (active)
CCCCC(CC)COP(=O)(O)OCC(CC)CCCC (stereo not given)    28.9 µM (active)
CCCCC(CC)COC(=O)CC(C(=O)OCC(CC)CCCC)S(=O)(=O)O (stereo not given)    35 µM (active)

Potency lookup needed for CCCCC(CC)COC(=O)c1ccc(O)cc1 (stereo not given) , thanks.
45.8 µM (active)

Reference for the values: PubChem BioAssay (Tox21)
